Biological target: T1, AW3, C-terminally His-tagged recombinant product of positions 1 to 218 of GPC3 (human, UniProt P51654 25-218)
T1 construct: Expressed in CHO cells; cell pellets used in reducing Western blot; Construct is stated from position 1; not shown: C-terminal His tag
T1 sequence (P51654 25-218): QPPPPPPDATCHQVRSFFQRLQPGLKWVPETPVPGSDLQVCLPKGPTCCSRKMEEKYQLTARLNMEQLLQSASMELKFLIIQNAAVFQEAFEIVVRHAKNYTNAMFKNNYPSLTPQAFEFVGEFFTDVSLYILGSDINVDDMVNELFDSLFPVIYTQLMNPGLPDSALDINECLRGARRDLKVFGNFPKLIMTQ
Experiment: Western blot of CHO cell pellets, reducing
readout.label: binding result

GT114 antibody (antibody, IgG1, V domains shown) VH: DVQLQESGPGLVKPSQSLSLTCTVTGYSITSDSAWNWIRQFPGNKLEWMAYIMYSGITSYNPSLKSRISITRDTAKNQFFLQLNSVTTEDSATYYCSRGYWYFDVWGAGTTVTVSS VL: QIVLTQSPAIMSASLGEEITLTCSASSSVSYMHWYQQKSGTSPKLLIYSTSILASGVPSRFSGSGSGTFYSLTISSVEAEDAADYYCLQWITYRTFGGGTKLEIKR; no binding
GT165 antibody (antibody, IgG1, V domains shown) VH: QVQLQQSGAELVGPGASVKISCKAFGYTFTNHHINWVKQRPGQGLDWIGYINPYNDYTNYNQKFKGKATLTVDKSSSTAYMELSSLTSEDSAVYYCARSDPAWFAYWGQGTLVTVSA VL: DIQMTQSPSSLSASLGGKVTITCKASQDINKNIAWYQHKPGKGPRLLIWYTYTLQPGIPSRFSGSGSGRDYSFSISNLEPEDIATYYCLQYDNLPFTFGTGTKLEIKR; no binding
GT607 antibody (antibody, IgG1, V domains shown) VH: EVQLVESGGDVVRPGGSLKLSCAASGFTFSSYGMSWVRQLPDKRLEWVASVGNGGSYRYYPENLKGRFTISRDNTKNTLYLQISGLKSEDTAIYYCARRGAFPYFDVWGAGTTVTVSS VL: QIVLTQSPAIMSASPGEKVTLACSASSSVTYMHWYQQKSGTSPKRWIYETSKLASGVPPRFSGSGSGTSYSLTISTMEAEDAATYYCQQWSSNPLTFGAGTKLELKR; no binding

Source: patent US20170010270A1
